reportedEndpoint: melting point

// known answers, use as guide
>>> testresult("CC12CCC(O)CC1CCC1C2CCC23CC(=O)C=CC2CCC13 (centres unmarked) [Compound 21c]")
"209 to 210 °C"
>>> testresult("C[C@]12CC[C@@H](O)C[C@H]1CCC1C3CC[C@@H]4C(=O)CCC[C@]34CCC12 (some centres unmarked)")
"220 to 222 °C"
>>> testresult("C=C1CCC[C@]23CCC4C(CC[C@@H]5C[C@H](O)CC[C@]45C)C2CC[C@H]13 (some centres unmarked)")
"131 to 133 °C"

For the compound shown here, CC12CCC(O)CC1CCC1C2CCC23C=CC(=O)C2CCC13 (centres unmarked) , give the reported melting point. 139 to 141 °C

For the compound shown here, COC1CCCC23CCC4C(CCC5CC(O)CCC54C)C2CCC13 (centres unmarked) [Compound 70] , give the reported melting point. 200 to 202 °C
